- measurement-setup: in methanol, 302.78 K

{"smiles-text": "CC[C@@]1(O)C(=O)OCc2c1cc1n(c2=O)Cc2cc3ccccc3nc2-1", "solubility (mole fraction)": "3.03e-05"}

###

- measurement-setup: in chloroform, 287.55 K

{"smiles-text": "CC[C@@]1(O)C(=O)OCc2c1cc1n(c2=O)Cc2cc3ccccc3nc2-1", "solubility (mole fraction)": 0.000308}

###

- measurement-setup: in methanol, 308.45 K

{"smiles-text": "CC[C@@]1(O)C(=O)OCc2c1cc1n(c2=O)Cc2cc3ccccc3nc2-1", "solubility (mole fraction)": "3.66e-05"}

###

- measurement-setup: in ethanol, 277.98 K
quantity: solubility (mole fraction)

{"smiles-text": "CC[C@@]1(O)C(=O)OCc2c1cc1n(c2=O)Cc2cc3ccccc3nc2-1", "reported-result": "9.03e-06"}

###

- measurement-setup: in methanol, 323.48 K

{"smiles-text": "CC[C@@]1(O)C(=O)OCc2c1cc1n(c2=O)Cc2cc3ccccc3nc2-1", "solubility (mole fraction)": "5.95e-05"}

###

- measurement-setup: in chloroform, 311.59 K

{"smiles-text": "CC[C@@]1(O)C(=O)OCc2c1cc1n(c2=O)Cc2cc3ccccc3nc2-1", "solubility (mole fraction)": 0.000489}
